# system-tested: Factor X (FX), P00742
# Sequence (P00742 whole entry, looked up): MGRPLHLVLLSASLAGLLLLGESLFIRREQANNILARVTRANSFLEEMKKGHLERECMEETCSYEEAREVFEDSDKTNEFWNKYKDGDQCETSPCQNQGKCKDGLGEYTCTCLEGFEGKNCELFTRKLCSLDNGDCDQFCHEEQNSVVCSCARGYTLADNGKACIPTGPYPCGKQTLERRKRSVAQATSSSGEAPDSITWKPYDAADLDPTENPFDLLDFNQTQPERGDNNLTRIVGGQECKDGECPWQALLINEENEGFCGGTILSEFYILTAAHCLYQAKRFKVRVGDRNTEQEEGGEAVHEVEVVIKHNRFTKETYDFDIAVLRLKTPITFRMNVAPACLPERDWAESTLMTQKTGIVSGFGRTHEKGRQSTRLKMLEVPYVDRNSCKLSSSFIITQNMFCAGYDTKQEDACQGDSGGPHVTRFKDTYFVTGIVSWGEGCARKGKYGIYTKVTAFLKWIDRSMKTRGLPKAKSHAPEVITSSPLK
measurement-kind: kcat/KM for FX activation (Xase assay with FVIIIa, PC/PS vesicles, Ca2+) (M⁻¹ s⁻¹)

protein="FIXa-R318Y/R338E/R403E (protein) chain 1: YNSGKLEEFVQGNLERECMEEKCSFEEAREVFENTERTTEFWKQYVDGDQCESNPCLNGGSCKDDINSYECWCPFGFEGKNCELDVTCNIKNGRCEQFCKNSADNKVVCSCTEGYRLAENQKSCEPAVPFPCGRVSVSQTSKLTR chain 2: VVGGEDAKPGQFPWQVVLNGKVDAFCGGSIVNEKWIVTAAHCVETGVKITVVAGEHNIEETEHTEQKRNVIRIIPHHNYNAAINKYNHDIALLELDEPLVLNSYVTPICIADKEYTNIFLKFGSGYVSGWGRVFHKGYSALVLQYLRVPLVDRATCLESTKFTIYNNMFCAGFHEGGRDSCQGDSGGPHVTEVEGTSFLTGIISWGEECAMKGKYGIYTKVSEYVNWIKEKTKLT" value_reported=6.5e+07

The reported measurements were obtained from patent US20210230570.
